- Test system: U-251
- PROTOCOL DESCRIPTION: NCI tumour cell line growth inhibition, 48 h
Calls of active or inactive are those of the source. No stated cut-off is given here; in the data, active = GI50 up to about 1.1 µM and inactive = higher.
// values below are reported GI50

- COMPOUND: "COc1ccccc1NC(=O)C(C#N)=C(SC)SC"
  GI50: "> 100 µM (inactive)"
- COMPOUND: "CCCC/C=C1\\CCC(CN2CCOCC2)C1=O (centres undefined)"
  GI50: "3.53 µM (inactive)"
- COMPOUND: "CCN(CC)C(=S)SS(=O)(=O)c1ccc(NC(C)=O)cc1"
  GI50: "18 µM (inactive)"
- COMPOUND: "COc1ccc(-c2c(N)n(-c3cccc(C(=O)O)c3)c(=O)c3cc([N+](=O)[O-])ccc23)cc1"
  GI50: "> 100 µM (inactive)"
- COMPOUND: "COc1ccc(-c2c(C#N)c(S)n(NS(=O)(=O)c3ccccc3)c(=O)c2C#N)cc1"
  GI50: "40.4 µM (inactive)"
- COMPOUND: "C/C(=N/O)c1cccc(Nc2nc3ccc(Cl)cc3c3[nH]c4ccccc4c23)c1"
  GI50: "2.44 µM (inactive)"
- COMPOUND: "CC1(c2cccc(Cl)c2)CC(c2cccc(Cl)c2)=C(C#N)C(=C(C#N)C#N)N1 (centres undefined)"
  GI50: "16.4 µM (inactive)"
- COMPOUND: "O=C(O)CCNCCCNCCC(=O)O"
  GI50: "> 100 µM (inactive)"
- COMPOUND: "CC(=O)OCC(=O)O[C@@H]1[C@H]2[C@@H](OC(=O)c3ccccc3)[C@@H](C)C[C@]2(O)[C@H](OC(C)=O)[C@@]2(C)C(OC(C)=O)[C@]1(OC(C)=O)C[C@H]1C(=O)C(C)(C)C[C@@H]12 (some centres undefined)"
  GI50: "> 50 µM (inactive)"

====

// values below are reported GI50
- Test system: Hs-578T
- PROTOCOL DESCRIPTION: NCI tumour cell line growth inhibition, 48 h
Activity calls are given as the source filed them. No stated cut-off is given here; in the data, active = GI50 up to about 1.1 µM and inactive = higher.

- MOLECULE: "C/C(=N\\N=C(/S)N(C)C)c1cccnn1"
  GI50: "> 66.4 µM (inactive)"
- MOLECULE: "C=C1CC(COc2ccc3c(C)c(Cl)c(=O)oc3c2)(c2ccccc2)OC1=O (stereo not given)"
  GI50: "5.58 µM (inactive)"
- MOLECULE: "CN(C)c1ccc(/C=C/c2ccc3ccccc3[n+]2C)cc1"
  GI50: "20.4 µM (inactive)"
- MOLECULE: "O=C(c1ccc(Cl)cc1Cl)N(Cc1cccnc1)C(=S)N(Cc1cccnc1)C(=O)c1ccc(Cl)cc1Cl"
  GI50: "21 µM (inactive)"
- MOLECULE: "Cc1cc2nc3ccc(N(C)C)cc3[s+]c2cc1N [TOLONIUM CHLORIDE]"
  GI50: "5.12 µM (inactive)"
- MOLECULE: "O=C1NC(N2CCCCC2)=N/C1=C\\c1ccccc1"
  GI50: "> 100 µM (inactive)"
- MOLECULE: "COc1cccc2cc(C(=O)NC34CC5CC(CC(C5)C3)C4)c(=N)oc12"
  GI50: "34 µM (inactive)"
- MOLECULE: "COc1ccc(NC(=O)CC(=O)N2N=C(C)C(/N=N/c3ccc(C(=O)O)cc3)C2=O)cc1 (stereo not given)"
  GI50: "> 100 µM (inactive)"
- MOLECULE: "O=C1OC(c2ccccc2)=N/C1=C/c1cccs1"
  GI50: "87.1 µM (inactive)"
- MOLECULE: "Cn1c(=O)c2c(nc3sc4c(n32)C(=O)c2c(O)ccc(O)c2C4=O)n(C)c1=O"
  GI50: "16.3 µM (inactive)"
